Reported IC50 values for a set of compounds
Test system: KRAS patient-derived spheroids with HUVEC/MSC, viability
Measurement Description: Anticancer human tumor 941728-121-R-J1-PDC patient-derived lung adenocarcinoma cell line growth inhibition [KRAS2]
Measurement Context: curve of first compound; second compound 1 µM

Recorded results for 4 compounds are shown here.
[[record]]
compound = "Cn1ncnc1[C@H]1c2n[nH]c(=O)c3cc(F)cc(c23)N[C@@H]1c1ccc(F)cc1 + C=CC(=O)N1CCN(c2nc(=O)n(-c3c(C)ccnc3C(C)C)c3nc(-c4c(O)cccc4F)c(F)cc23)C(C)C1"
measured_result = "< 0.316 nM"

[[record]]
compound = "COC(=O)c1ccc2c(C(=Nc3ccc(N(C)C(=O)CN4CCN(C)CC4)cc3)c3ccccc3)c(O)[nH]c2c1 + C=CC(=O)N1CCN(c2nc(=O)n(-c3c(C)ccnc3C(C)C)c3nc(-c4c(O)cccc4F)c(F)cc23)C(C)C1"
measured_result = "< 31.6 nM"

[[record]]
compound = "COc1cc(Nc2ncc3c(n2)-c2ccc(Cl)cc2C(c2c(F)cccc2OC)=NC3)ccc1C(=O)O + CNCc1ccccc1-c1csc(C(C)Nc2nc(C)nc3cc(OC)c(OC)cc23)c1"
measured_result = "< 31.6 nM"

[[record]]
compound = "CC1OCC2(CCN(c3cnc(Sc4ccnc(N)c4Cl)c(N)n3)CC2)C1N (stereo not given) + COc1cc2nc(C)nc(NC(C)c3cc(N)cc(C(F)(F)F)c3)c2cc1OC1CCOC1"
measured_result = "< 31.6 nM"


Now take the following compound into account.
Assign IC50 to the following record: COC(=O)c1ccc2c(C(=Nc3ccc(N(C)C(=O)CN4CCN(C)CC4)cc3)c3ccccc3)c(O)[nH]c2c1 + CC1OCC2(CCN(c3cnc(Sc4ccnc(N)c4Cl)c(N)n3)CC2)C1N < 31.6 nM

----------
Tested on: KRAS patient-derived spheroids with HUVEC/MSC, viability
Measurement Description: Anticancer human tumor 941728-121-R-J1-PDC cell line growth inhibition [KRAS2];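 also: spheroids exposed to agents for seven days before readout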
Measurement Context: second compound 0.0316 µM; first compound 0.00316 µM; stronger effect = lower value
Assay Readout: viability, T/C

Recorded results for 2 compounds are shown here.
[[record]]
compound = "CN(C)C/C=C/C(=O)Nc1cc2c(Nc3ccc(F)c(Cl)c3)ncnc2cc1O[C@H]1CCOC1 + C=CC(=O)N1CCN(c2nc(OCC3CCCN3C)nc3c2CCN(c2cccc4cccc(C)c24)C3)CC1CC#N"
measured_result = "22.2%"

[[record]]
compound = "CC(=O)Nc1cccc(-n2c(=O)n(C3CC3)c(=O)c3c(Nc4ccc(I)cc4F)n(C)c(=O)c(C)c32)c1 + C=CC(=O)N1CCN(c2nc(OCC3CCCN3C)nc3c2CCN(c2cccc4cccc(C)c24)C3)CC1CC#N"
measured_result = "25.4%"


Assign viability, T/C to the following record: CCN1CCN(Cc2ccc(Nc3ncc(F)c(-c4cc(F)c5nc(C)n(C(C)C)c5c4)n3)nc2)CC1 + C=CC(=O)N1CCN(c2nc(OCC3CCCN3C)nc3c2CCN(c2cccc4cccc(C)c24)C3)CC1CC#N 24.3%

Assign viability, T/C to the following record: CC(C)n1nc(-c2ccc3oc(N)nc3c2)c2c(N)ncnc21 + C=CC(=O)N1CCN(c2nc(OCC3CCCN3C)nc3c2CCN(c2cccc4cccc(C)c24)C3)CC1CC#N 24.6%

Assign viability, T/C to the following record: Cn1ncnc1[C@H]1c2n[nH]c(=O)c3cc(F)cc(c23)N[C@@H]1c1ccc(F)cc1 + C=CC(=O)N1CCN(c2nc(OCC3CCCN3C)nc3c2CCN(c2cccc4cccc(C)c24)C3)CC1CC#N 19.4%
